- Test system: U251 CNS
- testDescription: NCI-60 one-dose screen, 48 h (100 = growth as untreated, 0 = no growth, -100 = all killed)
- experimentalContext: 10 µM unless noted
About 83,000 compounds went through this panel and 20% of them were active in at least one assay; those are over-represented in the sample as a whole.
Measured growth values are reported for all entries that follow.
propertyLabel: growth (%)

[[record]]
compound = "CC1=C(C)C(=O)C(Nc2cccc(C(=O)OC(C)(C)C)c2)=C(Cl)C1=O"
valueunit = "%"
numericvalue = 88.5

[[record]]
compound = "O=C1Nc2ccccc2/C1=C/c1ccc(OCC(=O)c2ccccc2)cc1"
valueunit = "%"
numericvalue = 100

[[record]]
compound = "COc1cc(C(C)=C(c2ccc(OCCN(C)C)cc2)c2ccc(OCCN(C)C)cc2)ccc1F"
valueunit = "%"
numericvalue = 106

[[record]]
compound = "Cn1cc(-c2nnc(N)nc2-c2c[nH]c3ccc(F)cc23)c2cc(Br)ccc21"
valueunit = "%"
numericvalue = 17.5

[[record]]
compound = "O=C(N/N=C\\c1ccc(F)cc1)c1ccc2nc(-c3ccc(Br)cc3)[nH]c2c1"
valueunit = "%"
numericvalue = -62.1

[[record]]
compound = "O=C1C(SCc2ccccc2)=C(Cl)CN1c1ccccc1"
valueunit = "%"
numericvalue = 101

[[record]]
compound = "Oc1[nH]c2ccc(Cl)cc2c1N=Nc1nc(N=Nc2c(O)[nH]c3ccc(Cl)cc23)nc(N2CCOCC2)n1"
valueunit = "%"
numericvalue = 3.81

[[record]]
compound = "COc1cc(NC(=O)Nc2cccc(-c3cc(=O)c4c(OC)c(OC)c(OC)cc4o3)c2)cc(OC)c1OC"
valueunit = "%"
numericvalue = 27.5

[[record]]
compound = "C/C(=N\\NC(=O)Nc1ccccc1)c1nnn(-c2ccc([N+](=O)[O-])cc2)c1C"
valueunit = "%"
numericvalue = 102

[[record]]
compound = "N#C/C(=N\\Nc1ccc(F)cc1)C(=O)Nc1cc(-c2ccccc2)nn1-c1ccccc1"
valueunit = "%"
numericvalue = 8.65

[[record]]
compound = "NC(=S)n1c(=O)n(-c2cccc(C(F)(F)F)c2)c(=O)c2cc(-c3ccc(F)cc3F)ccc21"
valueunit = "%"
numericvalue = 9.68

[[record]]
compound = "C[C@H](Nc1ncnc2ccc(-c3cnc(Cl)c(NS(C)(=O)=O)c3)cc12)c1ccccc1"
valueunit = "%"
numericvalue = -52.6

[[record]]
compound = "Oc1ccc(-c2nc3ccc(/C(=N\\N=C\\c4ccc(Cl)cc4)c4ccccc4)cc3[nH]2)cc1"
valueunit = "%"
numericvalue = 86.6

[[record]]
compound = "CSc1ccc(/C(=N/N=C(N)N)c2ccc(Cl)cc2)cc1"
valueunit = "%"
numericvalue = -13.5

[[record]]
compound = "O=C(CSc1nc2ccccc2c(=O)n1-c1ccccc1)Nc1ccc(S(=O)(=O)Nc2nccs2)cc1"
valueunit = "%"
numericvalue = 2.78

[[record]]
compound = "CC(=O)Nc1ccccc1-c1nc2ccccc2s1"
valueunit = "%"
numericvalue = 108

[[record]]
compound = "COc1ccc(OC)c(CCn2cncc2-c2c[nH]c3ccc(Cl)cc23)c1"
valueunit = "%"
numericvalue = 47.1

[[record]]
compound = "CC(=O)c1c([Si](C)(C)C)c2cc(C#N)ccn2c1C(=O)c1ccc(Br)cc1"
valueunit = "%"
numericvalue = 93.2

[[record]]
compound = "CC(=O)C1=C(C)NC(NNc2ccccc2)=NC1c1ccc([N+](=O)[O-])cc1 (stereo not given)"
valueunit = "%"
numericvalue = 93.1

[[record]]
compound = "COc1ccc(Cn2cc(C#N)c(N)c2C(C)=O)cc1"
valueunit = "%"
numericvalue = 109


----------
- Tested on: MOLT-4 leukemia
- testDescription: NCI-60 one-dose screen, 48 h (100 = growth as untreated, 0 = no growth, -100 = all killed)
- experimentalContext: 10 µM unless noted
The panel holds about 83,000 compounds, 20% with a hit somewhere; the sample as a whole holds those more often.
Measured growth values are reported for all entries that follow.
propertyLabel: growth (%)

[[record]]
molecule = "COc1ccccc1Cn1cc(C#N)c(N)c1C(=O)c1ccc(Br)cc1"
propertylabel = "growth"
numericvalue = 85.4

[[record]]
molecule = "O=C(Nc1ccc(Cl)c(C(F)(F)F)c1)Nc1ccc2c(ccn2C(=O)c2cccc(F)c2)c1"
propertylabel = "growth"
numericvalue = 10.9

[[record]]
molecule = "COc1cc(C(=O)c2cc(C(C)=O)c3c(C)cccn23)cc(OC)c1OC"
propertylabel = "growth"
numericvalue = 92.5

[[record]]
molecule = "O=S(=O)(Oc1ccc(-c2cn3ccoc3n2)cc1)c1cccc(C(F)(F)F)c1"
propertylabel = "growth"
numericvalue = 103

[[record]]
molecule = "COc1ccc(C2CC(c3cccc(OCCCCOc4cccc(C5=NOC(c6ccc(OC)cc6)C5)c4)c3)=NO2)cc1 (stereo not drawn)"
propertylabel = "growth"
numericvalue = 92.2

[[record]]
molecule = "Cc1ccc2c(n1)C(=O)C(Cl)=C(Nc1cccc(C(=O)OC(C)(C)C)c1)C2=O"
propertylabel = "growth"
numericvalue = 6.09

[[record]]
molecule = "CN1CCN(c2ccc(Nc3nc(NCCCNS(=O)(=O)c4ccc(F)cc4)c4sccc4n3)cc2)CC1"
propertylabel = "growth"
numericvalue = 21.6

[[record]]
molecule = "CCN(CC)c1ccc(/C=N/NC(=O)c2ccc(S(N)(=O)=O)cc2)cc1"
propertylabel = "growth"
numericvalue = 14.2

[[record]]
molecule = "O=C1[C@@H]2Cc3c([nH]c4ccccc34)[C@H](c3ccc(Cl)cc3)N2C(=O)CN1C1CCN(Cc2ccccc2)CC1"
propertylabel = "growth"
numericvalue = 27

[[record]]
molecule = "C#CCOc1cccc(/C(N)=N/C(N)=N/c2nc3ccccc3s2)c1"
propertylabel = "growth"
numericvalue = 71.8

[[record]]
molecule = "CCc1nnc(NC(=O)c2cc(-c3ccc(Cl)cc3Cl)oc2C)s1"
propertylabel = "growth"
numericvalue = 99.3

[[record]]
molecule = "N#Cc1c(-c2ccc(Br)cc2)cc(-c2c[nH]c3ccccc23)nc1N"
propertylabel = "growth"
numericvalue = 41.4

[[record]]
molecule = "COc1cc2cc(Oc3ccc(NC(=O)c4cc(C(F)(F)F)cc(C(F)(F)F)c4)cc3)c(C)nc2cc1OCCN1CCOCC1"
propertylabel = "growth"
numericvalue = 66.1

[[record]]
molecule = "C/C(=N\\NC(=O)Nc1ccccc1)c1nnn(-c2ccc([N+](=O)[O-])cc2)c1C"
propertylabel = "growth"
numericvalue = 103

[[record]]
molecule = "C#C[C@]1(O)CC[C@H]2[C@@H]3CC=C4c5sc(Nc6cc(Cl)ccc6OC)nc5CC[C@]4(C)[C@H]3CC[C@@]21C"
propertylabel = "growth"
numericvalue = 1.34

[[record]]
molecule = "Cc1ccc(S(=O)(=O)NCCCNc2nccc(-c3[nH]c(-c4ccccc4)nc3-c3ccc(F)c(O)c3)n2)cc1"
propertylabel = "growth"
numericvalue = 39.2

[[record]]
molecule = "COc1cc2oc(-c3cccc(NC(=O)c4cccc([N+](=O)[O-])c4)c3)cc(=O)c2c(OC)c1OC"
propertylabel = "growth"
numericvalue = 54

[[record]]
molecule = "C/C(=N\\NC(=O)/C=C/CC(=O)O)c1nnn(-c2ccc([N+](=O)[O-])cc2)c1C"
propertylabel = "growth"
numericvalue = 105


----------
Measured growth values are reported for all entries that follow.
- Test system: SK-MEL-28 melanoma
- testDescription: NCI-60 one-dose screen, 48 h (100 = growth as untreated, 0 = no growth, -100 = all killed)
- experimentalContext: 10 µM unless noted
This is part of a sample that, as a whole, favours compounds with a hit. Of some 83,000 tested, about 20% had one in any assay.
propertyLabel: growth (%)

[[record]]
molecule = "CC(C)(O)c1cncc(-c2ccc3ncc(C#N)c(N4CCc5cc(F)c(Cl)cc54)c3c2)c1"
propertylabel = "growth"
numericvalue = 9.63

[[record]]
molecule = "Cc1ccc(N2CCN(C3=C(Cl)C(=O)c4ncccc4C3=O)CC2)cc1"
propertylabel = "growth"
numericvalue = 80.9

[[record]]
molecule = "CCOP(=O)(OCC)OC[C@]12CCC(C)(C)C[C@H]1C1=CC[C@@H]3[C@@]4(C)CC[C@H](OP(=O)(OCC)OCC)C(C)(C)[C@@H]4CC[C@@]3(C)[C@]1(C)CC2"
propertylabel = "growth"
numericvalue = 78.9

[[record]]
molecule = "O=S(=O)(Oc1ccc(-c2cn3ccoc3n2)cc1)C1CCCCC1"
propertylabel = "growth"
numericvalue = 100

[[record]]
molecule = "CC(C)(C)Nc1nc2c(OCCc3ccccc3)cccn2c1-c1ccc([N+](=O)[O-])cc1"
propertylabel = "growth"
numericvalue = 76.2

[[record]]
molecule = "Cc1ccc(C(=O)Nc2ccc(CNCCN3CCOCC3)c(C(F)(F)F)c2)cc1C#Cc1cnc2cccnn12"
propertylabel = "growth"
numericvalue = -6.46

[[record]]
molecule = "CCOC(=O)c1c(NC(=O)c2ccc(C(F)(F)F)cc2)sc2c(CN3CCN(C)CC3)c(O)ccc12"
propertylabel = "growth"
numericvalue = -82.3

[[record]]
molecule = "Cn1cc(-c2cc3ncnc(Nc4ccc(NC(=O)Nc5cc(C(C)(C)C)on5)cc4)c3s2)cn1"
propertylabel = "growth"
numericvalue = 15

[[record]]
molecule = "C#CCN(C)CCCOc1ccc(NCc2ccc(/C=C/C(=O)NO)cc2)cc1Cl"
propertylabel = "growth"
numericvalue = -14.4

[[record]]
molecule = "O=C(CSc1nc2ccccc2c(=O)n1-c1ccc(S(=O)(=O)Nc2ccc(Cl)nn2)cc1)Nc1ccc(S(=O)(=O)Nc2ccc(Cl)nn2)cc1"
propertylabel = "growth"
numericvalue = 106

[[record]]
molecule = "COc1ccc(/C=N/NC(=O)c2c(N)nn(C)c2Nc2ccccc2)cc1Oc1ccccc1"
propertylabel = "growth"
numericvalue = 102

[[record]]
molecule = "CN1CCN(c2ccc(Nc3nc(NCCCNS(=O)(=O)c4cccc(F)c4)c4sccc4n3)cc2)CC1"
propertylabel = "growth"
numericvalue = -77.4

[[record]]
molecule = "COC(=O)CCCNCCCn1ccc2cc(NCc3cccc(-c4ccccc4)c3C)ccc21"
propertylabel = "growth"
numericvalue = 75.9

[[record]]
molecule = "C#C[C@]1(O)CC[C@H]2[C@@H]3CC=C4c5sc(Nc6ccc(C)cn6)nc5CC[C@]4(C)[C@H]3CC[C@@]21C"
propertylabel = "growth"
numericvalue = -72.4

[[record]]
molecule = "O=c1nc(Nc2ccc([N+](=O)[O-])cc2O)sc2ccccc12"
propertylabel = "growth"
numericvalue = 50.8

[[record]]
molecule = "CCN(CC)c1ccc(/C=N/NC(=O)c2ccc(NS(C)(=O)=O)cc2)cc1"
propertylabel = "growth"
numericvalue = 23.8

[[record]]
molecule = "COc1ccc2c(c1)C=CC1(O2)Oc2ccc(OC)cc2C=C1C (stereo not drawn)"
propertylabel = "growth"
numericvalue = 54.2

[[record]]
molecule = "COc1cc(C(C)=C(c2ccc(OCCN(C)C)cc2)c2ccc(OCCN(C)C)cc2)ccc1F"
propertylabel = "growth"
numericvalue = 109

